- METHOD_SUMMARY: NCI Yeast Anticancer Drug Screen. Data for the mec2-1 strain (AID 157)
- RUN_PARAMETERS: S. cerevisiae mec2-1 strain, at 50.0 µM, hits give high values
The panel holds about 79,000 compounds, 15% with a hit somewhere; the sample as a whole holds those more often.
Class key for growth inhibition values: low end: < 20%; middle: ≥ 20% and < 90%; high end: ≥ 90%

Use the examples below as a reference point.
O=S(c1cc(Br)ccc1O)c1cc(Br)ccc1O: high end
NS(=O)(=O)c1ccc(Nc2c3ccccc3nc3c(C(=O)N4CCN(CCO)CC4)cccc23)cc1: middle
Nc1cc(F)c2c(c1)Cc1ccccc1-2: middle
O=C(COc1ccc(Cl)cc1Cl)Nc1cccc(C(F)(F)F)c1: low end
CC1(O)Cc2c(O)c3c(c(O)c2CC1O)C(=O)C=CC3=O (centres undefined): middle

*Q* Note: place this compound into its band. Item: Cc1nc(N=C(N)N)nc2ccc3ccccc3c12
*A* middle

---

- METHOD_SUMMARY: NCI Yeast Anticancer Drug Screen. Data for the bub3 strain (AID 167)
- RUN_PARAMETERS: S. cerevisiae bub3 mutant strain, at 50.0 µM, hits give high values
Compounds without any hit were thinned out: in the full panel of roughly 79,000, 15% have a hit. Calls of active or inactive are those of the source. Cut-off read from the data, not from the text of the source: active = growth inhibition above about 70%; inactive = the rest. Where a SMILES comes first, the peptide text is derived from it.
OUTCOME_MEASURE: growth inhibition

Known results for compounds:
CC(C)CCCC(C)C1CCC2C3CC=C4CC([n+]5cccc6ccccc65)CCC4(C)C3CCC12C (stereo unspecified): 92.2% (active)
CN(C)c1ccc(/C=C/c2ccc3ccccc3[n+]2C)cc1: 84.2% (active)
O=C(/C=C/c1ccc(Cl)cc1)NC1C=Nc2ccc([N+](=O)[O-])cc2NC1=O (stereo unspecified): 92.3% (active)
CC(C)C(NC(=O)C(N)CCC(=O)O)C(=O)O (stereo not drawn) (H-Glu-Val-OH; configuration not given here): -8.25% (inactive)
N#CC(=C1C=CC(=NOC(=O)Nc2cccc3ccccc23)C=C1)c1ccccc1: 98.3% (active)
CN(C)c1nc(N)c(C#N)c(C#N)c1C#N: 88.5% (active)
Cc1nc2c(nc1C)C(=O)c1ccccc1C2=O: 67.3% (inactive)
CC[N+](CC)=c1ccc2nc3c(cc(N)c4ccccc43)oc-2c1: 63% (inactive)

*Q* Returns the measured growth inhibition for the input compound. Input: Nc1ccc(Cn2ccc3c4c(N)nc(N)nc4ccc32)cc1
*A* 41.4% (inactive)

*Q* Returns the measured growth inhibition for the input compound. Input: O=C(O)c1ccc2c(c1)Cc1cc([N+](=O)[O-])ccc1-2
*A* 14% (inactive)

*Q* Returns the measured growth inhibition for the input compound. Input: O=C(NNc1ccnc2cc(Cl)ccc12)/C(=C/c1ccc2c(c1)OCO2)NC(=O)c1ccccc1
*A* 58.9% (inactive)

*Q* Returns the measured growth inhibition for the input compound. Input: CN1CCCc2cc(/C=C\c3ccnc4ccccc34)ccc21
*A* 96.8% (active)

*Q* Returns the measured growth inhibition for the input compound. Input: O=C(c1ccc(Cl)cc1)C(O)c1ccc(Cl)cc1 (stereo unspecified)
*A* 65.8% (inactive)

*Q* Returns the measured growth inhibition for the input compound. Input: O=[N+]([O-])c1cc2c(cc1S(=O)(=O)O)C1C(C3C2C2(Cl)C(Cl)=C(Cl)C3(Cl)C2(Cl)Cl)C2(Cl)C(Cl)=C(Cl)C1(Cl)C2(Cl)Cl (stereo unspecified)
*A* 71.2% (active)

---

- METHOD_SUMMARY: NCI Yeast Anticancer Drug Screen. Data for the cln2 rad14 strain (AID 165);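 note: 0% = growth equal to vehicle treated cultures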
- RUN_PARAMETERS: S. cerevisiae cln2 rad14 strain, at 50.0 µM
The panel holds about 79,000 compounds, 15% with a hit somewhere; the sample as a whole holds those more often. Calls of active or inactive are those of the source. Rule as the data show it: active = growth inhibition above about 70%; inactive = the rest.
Your reply should match one of these outcome classes. active, inactive

*Q* Outcome? CCOC(=O)/C(=C/c1ccc(OC)c(OC)c1)C(=O)c1ccccc1
*A* active

*Q* Outcome? CCCCCCCCCCS(=O)CC(CO)NC(=O)/C=C/c1c(C)[nH]c(=O)[nH]c1=O (stereo unspecified)
*A* active

*Q* Outcome? Nc1ccc2c(n1)NCC/C2=N\Nc1ccccc1
*A* inactive

*Q* Outcome? Cc1c2ccccc2c(C=O)c2ccccc12
*A* active

*Q* Outcome? CCO/C(=C\C=O)C1CCC2C3CC=C4CC(OC(C)=O)CCC4(C)C3CCC12C (stereo unspecified)
*A* inactive

*Q* Outcome? Nc1ccc2c(ccc3ccc4ccccc4c32)c1
*A* active

*Q* Outcome? CCOC(=O)c1c[nH]c2cc(C(F)(F)F)ccc2c1=O
*A* inactive

*Q* Outcome? COc1cc2c(c3c1/c(=N/N(C)C)c1ccccc1n3C)C=CC(C)(C)O2
*A* inactive

*Q* Outcome? CC(NC(=O)C(N)Cc1ccccc1)C(=O)NC1C(CO)OC(n2cnc3c(N)ncnc32)C1O (stereo unspecified)
*A* active

---

- METHOD_SUMMARY: NCI Yeast Anticancer Drug Screen. Data for the rad50 strain (AID 155);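 note: 0% = growth of vehicle-only cultures of the same strain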
- RUN_PARAMETERS: S. cerevisiae rad50 strain growth inhibition; at 50.0 µM (retest, dose inferred, filed as 5.0); hits give high values
About 79,000 compounds went through this panel and 15% of them were active in at least one assay; those are over-represented in the sample as a whole.
OUTCOME_MEASURE: growth inhibition (%)
Just the number please, in %, no unit attached.

Known results for molecules:
COc1ccc2nc(C)cc(NCCCCCCCCCNc3cc(C)nc4ccc(OC)cc34)c2c1: 94
OC1(C2C=CC=C2)c2ccccc2C=Cc2ccccc21: 51
c1ccc(C(c2ccccc2)n2ccnc2)cc1: -13
O=C(Nc1ccc(Cl)cc1)c1ccccc1O: 8
CCOC(=O)c1c(CN2CCNCC2)nc2ccc(Cl)cc2c1-c1ccccc1: 30

Let's switch to this molecule now.
*Q* Returns the measured growth inhibition for the input molecule. Input: Cc1nc(N=C(N)N)nc2ccc3ccccc3c12
*A* 38

---

- METHOD_SUMMARY: NCI Yeast Anticancer Drug Screen. Data for the bub3 strain (AID 167)
- RUN_PARAMETERS: S. cerevisiae bub3 mutant strain, at 50.0 µM (retest, dose inferred, filed as 5.0)
About 79,000 compounds went through this panel and 15% of them were active in at least one assay; those are over-represented in the sample as a whole. Activity calls are given as the source filed them. Rule as the data show it: active = growth inhibition above about 70%; inactive = the rest.
Your reply should match one of these outcome classes. active, inactive

CN(C)C(=Nc1nc(=[N+](C)C)ss1)N(C)C: inactive
C1=C(c2ccccc2)N(CCc2ccccc2)C(c2ccccc2)=CN1Cc1ccccc1: active
CC(=O)OCC1OC(n2c(C)c(C(C)=O)c(-c3ccco3)c(C#N)c2=S)C(OC(C)=O)C(OC(C)=O)C1OC(C)=O (stereo not given): inactive
CCCc1cc(=O)oc2c3c(c4c(c12)OC(C)(C)CC4)O[C@@H](C)[C@H](C)[C@H]3O: active
OCC(O)C(O)C(O)C(O)C(/C=N/Nc1ccccc1)=N/Nc1ccccc1 (stereo not given): inactive

*Q* Outcome? CCOC(=O)C(Cc1ccccc1[N+](=O)[O-])C(=O)OCC
*A* inactive

*Q* Outcome? NNc1c2ccccc2nc2ccccc12
*A* inactive

*Q* Outcome? O=C1C=CC(=O)C(C2OC(=O)C(Br)=C2Br)=C1 (stereo not given)
*A* inactive

*Q* Outcome? O=C1C(CN2CCCCC2)CCCC1CN1CCCCC1 (stereo not given)
*A* inactive

*Q* Outcome? O=C(/C=C/c1ccc(Cl)cc1)NC1C=Nc2ccc([N+](=O)[O-])cc2NC1=O (stereo not given)
*A* active

---

- METHOD_SUMMARY: NCI Yeast Anticancer Drug Screen. Data for the cln2 rad14 strain (AID 165);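 note: 0% = growth equal to vehicle treated cultures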
- RUN_PARAMETERS: S. cerevisiae cln2 rad14 strain, at 5.0 µM (retest, dose inferred, filed as 0.5)
Compounds without any hit were thinned out: in the full panel of roughly 79,000, 15% have a hit. The source made the active and inactive calls. Cut-off read from the data, not from the text of the source: active = growth inhibition above about 70%; inactive = the rest.
Your reply should match one of these outcome classes. 1.0 (active), 0.0 (inactive)

Use the examples below as a reference point.
CCCCCCCCCCCCCCCC[N+](C)(C)c1nc(Cl)nc(Cl)n1: 1.0
CCOP(=O)(OCC)C(C)(CC)NC(=O)C(C(F)(F)F)C(F)(F)F (configuration not stated): 0.0

*Q* Outcome? O=S(=O)(O)c1ccc2cc(N=Nc3c(O)ccc4ccccc34)ccc2c1
*A* 0.0

---

- METHOD_SUMMARY: NCI Yeast Anticancer Drug Screen. Data for the mlh1 rad18 strain (AID 175)
- RUN_PARAMETERS: S. cerevisiae mlh1 rad18 strain growth inhibition; at 50.0 µM; hits give high values
The panel holds about 79,000 compounds, 15% with a hit somewhere; the sample as a whole holds those more often.
OUTCOME_MEASURE: growth inhibition (%)
Just the number please, in %, no unit attached.

CCOC(=O)c1ccc(NCc2ccc3ccccc3n2)cc1: 74.3
c1ccc(-c2conc2-c2ccccc2)cc1: 71.3
Cc1cc2c(c(Br)c1O)Oc1c(cc(C)c(O)c1Br)C21OC(=O)c2ccccc21: 90
Clc1ccc(CN2CCCN(Cc3ccc(Cl)cc3)C2c2cc3ccccc3c3ccccc23)cc1: 89.2

*Q* Returns the measured growth inhibition for the input compound. Input: CC(=O)c1ccc(N)cc1
*A* 20.1

*Q* Returns the measured growth inhibition for the input compound. Input: C=C1C(=O)OC2C[C@@]3(C)CCC[C@H](C)C3=CC12 (stereo partly specified) (tested in a mixture with another compound)
*A* 89.2

Entry source: PubChem BioAssay (NCI)
